Source: paper PMC9864330

As shown below, each of these compounds has a reported pIC50 value.
Assayed system: PI3K (phosphatidylinositol 3-kinase)
Assay text: PI3K enzyme activity assay, dose response […]
Keep it numeric: pIC50 is minus log10 of the concentration in mol/L.

O=C1OC(O)C(Cc2ccc(O)cc2)=C1c1ccc(O)c(O)c1 (racemic) [compound 12, 8-hydroxyhelvafuranone]
5.01

Now consider the entry below.
# input compound: O=C1OCC(Cc2ccc(O)c(O)c2)=C1c1ccc(O)c(O)c1 [compound 11, eutypoid F] ; wanted: its pIC50
5.77
